- Test system: HepG2 cells, shRNA targeting WFS1
- protocol-notes: Cell viability, HepG2 WFS1 shRNA
- Type: cell-based
- assay-conditions: Homo sapiens
observation-type: IC50
Express your answer as a number followed by its unit.

Qu. Item under review: Cc1nc(N[C@H]2C[C@H](Oc3cc(F)c(F)c(F)c3)C2)nc2c1N(C)C(=O)[C@H](C)N2C . Reported IC50?
Ans. 17 µM

----------
- System: Hek293 WFS1 over-expressor
- protocol-notes: In vitro cell viability (CellTiter-Glo), Hek293 WFS1 over-expressor
- Type: cell-based
- assay-conditions: Homo sapiens, HEK293, Hek293 WFS1 over-expressing cells; read-out: Hek293 WFS1 viability
pIC50: −log10 of the molar value.
observation-type: pIC50

// below: answered molecules
| molecule | result |
| --- | --- |
| CCN1c2nc(NCc3cnn(Cc4ccc(C(F)(F)F)nc4)c3)nc(C)c2NC(=O)[C@@H]1C [Compound 395] | > 7.22 |
| CCOc1ccc(CCn2cc(CNc3ncc4c(n3)N(C)[C@@H](C)C(=O)N4)cn2)cc1 [Compound 121] | 5.52 to 6.22 |
| Cc1nc(N[C@H]2C[C@H](Oc3cc(F)c(F)c(F)c3)C2)nc2c1NC(=O)[C@H](C)N2C [Compound 246] | > 7.22 |
| Cc1ncc(Cn2cc(CNc3nc(C)c4c(n3)N(C)[C@@H](C(C)C)C(=O)N4)cn2)cc1F [Compound 425] | 6.22 to 7.22 |
| CC[C@H]1C(=O)Nc2cnc(NCc3cnn(Cc4ccc(C(F)(F)F)nc4)c3)nc2N1C [Compound 427] | 6.22 to 7.22 |

Hey, quick one: what's pIC50 for each of these?
1. Cc1nc(NCc2cnn(C3CCN(C(=O)c4ccc(F)cc4)CC3)c2)nc2c1NC(=O)[C@H](C)N2C [Compound 125]
2. Cc1nc(NCc2cn(Cc3ccc(C(F)(F)F)nc3)nc2Br)nc2c1NC(=O)[C@H](C)N2C [Compound 412]

Ans.
5.52 to 6.22
6.22 to 7.22

----------
Kindly state IC50 for each of the entries shown.
- System: Hek293 WFS1 over-expressor
- protocol-notes: In vitro cell viability (CellTiter-Glo), Hek293 WFS1 over-expressor
- Format: cell-based
- assay-conditions: Homo sapiens, HEK293, Hek293 WFS1 over-expressing cells; read-out: Hek293 WFS1 viability

# annotated cases, reported IC50 shown
| compound | IC50 |
| --- | --- |
| Cc1nc(NCc2cnn(Cc3ccc(C(F)(F)F)nc3C(C)C)c2)nc2c1NC(=O)[C@H](C)N2C [Compound 388] | < 60 nM |
| Cc1nc(NCc2cnn(Cc3ccc(C(F)(F)F)nc3)c2)nc2c1NC(=O)[C@H](C)N2C(C)C [Compound 385] | < 60 nM |
| Cc1nc(NCc2cnn(Cc3ccc(C(F)(F)F)nc3Cl)c2)nc2c1NC(=O)[C@H](C)N2C [Compound 418] | < 60 nM |
| Cc1nc(NCc2cnn(Cc3ccc(C(F)(F)F)nc3C(C)(C)O)c2)nc2c1NC(=O)[C@H](C)N2C [Compound 416] | < 60 nM |
| Cc1nc(NCc2ccc(-n3cc(C(F)(F)F)cn3)nc2)nc2c1NC(=O)[C@H](C)N2C [Compound 143] | 60 to 600 nM |
| Cc1nc(NCc2cnn(CCc3ccc(F)cc3)c2)nc2c1N(C)C(=O)[C@H](C)N2C [Compound 8] | ≥ 3000 nM |
| Cc1nc(N[C@H]2CC[C@H](Oc3ccc(C(F)(F)F)nc3)C2)nc2c1NC(=O)[C@H](C)N2C (single isomer, unassigned) [Compound 376] | 60 to 600 nM |
| Cc1nc(C(F)(F)F)ccc1Cn1cc(CNc2nc(C)c3c(n2)N(C)[C@@H](C)C(=O)N3)cn1 [Compound 188] | < 60 nM |
| CC[C@H]1C(=O)Nc2c(C)nc(NCc3cnn(Cc4ccc(C(F)(F)F)nc4)c3)nc2N1C [Compound 186] | < 60 nM |
| Cc1nc(NCc2cnn(CCC3CCOCC3)c2)nc2c1NC(=O)[C@H](C)N2C [Compound 115] | 600 to 3000 nM |

Please state IC50 for every compound in the list that follows.
1. Cc1nc(NCc2cnn(CC(C)(O)c3ccc(F)cc3)c2)nc2c1NC(=O)[C@H](C)N2C (stereo partly drawn) [Compound 128]
2. Cc1nc(N[C@H]2C[C@@H](Oc3cc(F)c(F)c(F)c3)C2)nc2c1NC(=O)[C@H](C)N2C [Compound 247]

Ans.
["600 to 3000 nM", "≥ 3000 nM"]

----------
- Tested on: HepG2 WFS1 KO
- protocol-notes: In vitro cell viability (CellTiter-Glo), HepG2 WFS1 KO
- Format: cell-based
- assay-conditions: cell viability, HepG2 WFS1 KO, 96 hours; read-out: IC50 class
- Text: A double cleavage strategy was employed to remove large fragments from the WFS1 locus. Suitable target sites in WFS1 exon 8 were first selected using CRISPR design software to rank suitable target sites and computationally predict off-target sites for each intended target. […] Cell clones with homozygous double cleavage of WFS1 exon 8 were detected with PCR and confirmed with DNA sequencing. […]
observation-type: IC50

Qu. Quick one: IC50 of Cc1nc(NCc2cnn(Cc3ccc(C(F)(F)F)nc3)c2)nc2c1NC(=O)[C@H](C)N2C ?
Ans. ≥ 10 µM

----------
- Test system: Hek293 WFS1 over-expressor
- protocol-notes: In vitro cell viability (CellTiter-Glo), Hek293 WFS1 over-expressor
- Type: cell-based
- assay-conditions: Homo sapiens, HEK293, cell viability, Hek293 WFS1 over-expressor; read-out: IC50
observation-type: IC50 (nM)
One number for each entry, in nM.

Qu. Dear colleague, I am looking for the recorded IC50 of the following compound: Cc1nc(N[C@H]2C[C@H](Oc3cc(F)c(F)c(F)c3)C2)nc2c1N(C)C(=O)[C@H](C)N2C [Compound 253]
Ans. 12

----------
IC50 tested on HEK293 membranes over-expressing WFS-1 (Homo sapiens (Human)): recorded values
Sequence (O76024 whole entry): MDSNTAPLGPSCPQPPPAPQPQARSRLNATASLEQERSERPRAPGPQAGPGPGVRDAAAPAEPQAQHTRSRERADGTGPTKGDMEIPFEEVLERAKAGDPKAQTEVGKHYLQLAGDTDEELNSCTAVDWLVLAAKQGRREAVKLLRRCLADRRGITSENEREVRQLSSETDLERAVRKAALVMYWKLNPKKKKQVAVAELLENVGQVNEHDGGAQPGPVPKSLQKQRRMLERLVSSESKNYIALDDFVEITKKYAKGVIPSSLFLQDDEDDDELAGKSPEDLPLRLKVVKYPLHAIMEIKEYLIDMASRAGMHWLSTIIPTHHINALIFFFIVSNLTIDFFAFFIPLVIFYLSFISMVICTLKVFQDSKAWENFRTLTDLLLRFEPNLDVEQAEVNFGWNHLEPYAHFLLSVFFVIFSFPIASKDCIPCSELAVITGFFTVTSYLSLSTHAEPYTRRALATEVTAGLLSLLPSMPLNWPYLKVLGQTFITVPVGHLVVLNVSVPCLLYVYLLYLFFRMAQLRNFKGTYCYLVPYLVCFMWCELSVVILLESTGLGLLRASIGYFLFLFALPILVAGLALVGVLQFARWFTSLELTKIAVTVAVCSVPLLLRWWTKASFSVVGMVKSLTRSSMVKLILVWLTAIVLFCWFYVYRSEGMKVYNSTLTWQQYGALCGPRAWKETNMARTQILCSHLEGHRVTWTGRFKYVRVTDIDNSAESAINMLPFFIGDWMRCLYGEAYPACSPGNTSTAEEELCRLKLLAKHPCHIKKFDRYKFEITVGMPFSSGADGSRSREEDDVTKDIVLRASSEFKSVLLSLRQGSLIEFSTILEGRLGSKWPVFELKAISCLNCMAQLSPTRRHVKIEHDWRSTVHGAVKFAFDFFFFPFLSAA

// known answers, use as guide
| molecule | IC50 |
| --- | --- |
| Cc1nc(N[C@H]2C[C@H](Oc3cc(F)c(F)c(F)c3)C2)nc2c1NC(=O)[C@H](C)N2C | 60 to 600 nM |
| Cc1nc(N[C@H]2C[C@@H](Oc3cc(F)c(F)c(F)c3)C2)nc2c1NC(=O)[C@H](C)N2C | 60 to 600 nM |
| Cc1nc(NCc2cnn(CCc3ccc(F)cc3)c2)nc2c1NC(=O)[C@H](C)N2C | 60 to 600 nM |
| Cc1nn(C)cc1Cn1cc(CNc2nc(C)c3c(n2)N(C)[C@@H](C)C(=O)N3)cn1 | 600 to 3000 nM |
| CC[C@H]1C(=O)Nc2c(C)nc(NCc3cnn(Cc4ccc(C(F)(F)F)nc4)c3)nc2N1C | 60 to 600 nM |
| CO[C@H](C)[C@H]1C(=O)Nc2c(C)nc(N[C@H]3C[C@@H](COc4ccc(C(F)(F)F)nc4)C3)nc2N1C | < 60 nM |
| Cc1nc(NCc2cnn(Cc3ccc(C(F)(F)F)nc3)c2)nc2c1NC(=O)[C@H](C)N2C(C)C | < 60 nM |
| Cc1nc(NCc2cnn(Cc3ccc(C(F)(F)F)nc3C(C)O)c2)nc2c1NC(=O)[C@H](C)N2C (stereo partly drawn) | 60 to 600 nM |
| Cc1nc(NCc2cnn(Cc3cncc(F)c3)c2)nc2c1NC(=O)[C@H](C(C)C)N2C | < 60 nM |
| Cc1nc(NCc2ccc(-n3cc(C(F)(F)F)cn3)nc2)nc2c1NC(=O)[C@H](C)N2C | 60 to 600 nM |

Below is a list of molecules. For each, state its recorded IC50.
1. Cc1ccc(Cn2cc(CNc3nc(C)c4c(n3)N(C)[C@@H](C)C(=O)N4)cn2)cn1
2. Cc1nc(N[C@H]2C[C@H](Oc3ccc(F)cc3)C2)nc2c1N(C)C(=O)[C@H](C)N2C
3. COc1cc(F)ccc1Cn1cc(CNc2nc(C)c3c(n2)N(C)[C@@H](C)C(=O)N3)cn1
4. Cc1nc(NCc2cnn(Cc3ccc(F)cc3)c2)nc2c1NC(=O)C1(CC1)N2

Ans.
["600 to 3000 nM", "60 to 600 nM", "< 60 nM", "600 to 3000 nM"]

----------
- System: β-catenin-TCF-mediated reporter transcription activity in Colo 205 cells
- protocol-notes: Colo 205 reporter assay (TCF/LEF luciferase)
- Format: cell-based
- assay-conditions: Colo 205 TCF/LEF luciferase reporter, five hours after addition of compound; read-out: TCF reporter Colo205 IC50
- Method: The compounds of the invention described herein were screened using the assay procedure for β-catenin-TCF-mediated reporter transcription activity described below. […] Colo 205 Cultured cells with a stably transfected reporter construct were plated at approximately 10,000 cells per well into 384 well multi-well plates for twenty four hours. […] Five hours after the addition of compound, reporter activity for luciferase was assayed, by addition of the SteadyGlo luminescence reagent (Promega). […]
observation-type: IC50

// worked examples, IC50 included
| molecule | result |
| --- | --- |
| C[C@H]1C(=O)Nc2cnc(NC3CC(C)(OCc4cc(F)c(F)c(F)c4)C3)nc2N1C (stereo in doubt) | ≥ 5 µM |
| COCC1(C)C(=O)Nc2c(C)nc(N[C@H]3C[C@H](Oc4cnc(C(F)(F)F)nc4)C3)nc2N1C (relative stereo) [Compound 706] | 0.3 to 1 µM |

Hi, could you look up IC50 for each item in my list?
1. CC[C@H]1C(=O)N(C)c2cnc(NCc3cnn(Cc4ccc(F)cc4)c3)nc2N1C(C)C
2. COCC1(C)C(=O)Nc2c(C)nc(N[C@H]3C[C@H](Oc4cnc(C(F)(F)F)nc4)C3)nc2N1C (relative stereo) [Compound 710]
3. Cc1nc(NCc2cnn(Cc3ccc(C(F)(F)F)nc3)c2)nc2c1NC(=O)C1(CCOC1)N2C (stereo not shown) [Compound 663]
4. Cc1nc(N[C@H]2CC[C@H](Oc3cc(F)c(F)c(F)c3)C2)nc2c1NC(=O)[C@H](C)N2C
5. Cc1nc(N[C@H]2C[C@H](Oc3cc(F)c(F)c(F)c3)C2)nc2c1NC(=O)[C@H]([C@H](C)OC(C)(C)C)N2C

Ans.
1: 0.3 to 1 µM; 2: 1 to 5 µM; 3: 1 to 5 µM; 4: 0.3 to 1 µM; 5: 0.3 to 1 µM

Where do the numbers come from? From patent US20230312587A1.
